B1: glmS ribozyme (parent)
chain: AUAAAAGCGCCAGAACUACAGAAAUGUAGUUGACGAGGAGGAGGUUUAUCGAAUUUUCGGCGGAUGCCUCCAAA

# Variants of: B1
# EXPERIMENTAL_DETAILS: self-cleavage kobs at 2500 uM GlcN6P; higher = faster cleavage; RNA array
# MEASUREMENT_CONDITIONS: with glucosamine-6-phosphate
Fewer inactive variants are shown than the library holds.
Measured self-cleavage kobs at 2500 uM GlcN6P, listed per entry for reference.

MUTATION_LABEL: A6C A42U G59U
SIGN: <
self-cleavage kobs at 2500 uM GlcN6P / s⁻¹: 1e-05

MUTATION_LABEL: G66A C68G
SIGN: =
self-cleavage kobs at 2500 uM GlcN6P / s⁻¹: 4.73e-05

MUTATION_LABEL: A36U U46A
SIGN: <
self-cleavage kobs at 2500 uM GlcN6P / s⁻¹: 1e-05

MUTATION_LABEL: G32A A53C C71U
SIGN: =
self-cleavage kobs at 2500 uM GlcN6P / s⁻¹: 0.000197

MUTATION_LABEL: A14C G44C C67G
SIGN: =
self-cleavage kobs at 2500 uM GlcN6P / s⁻¹: 0.000548

MUTATION_LABEL: U47G U54A
SIGN: =
self-cleavage kobs at 2500 uM GlcN6P / s⁻¹: 0.00522

MUTATION_LABEL: A12C A15U
SIGN: =
self-cleavage kobs at 2500 uM GlcN6P / s⁻¹: 0.0012

MUTATION_LABEL: G7C G32C G41U U47G U56C
SIGN: <
self-cleavage kobs at 2500 uM GlcN6P / s⁻¹: 1e-05

MUTATION_LABEL: U47C G66C
SIGN: <
self-cleavage kobs at 2500 uM GlcN6P / s⁻¹: 1e-05

MUTATION_LABEL: U45G C71A
SIGN: =
self-cleavage kobs at 2500 uM GlcN6P / s⁻¹: 0.000778

MUTATION_LABEL: U30A U47C
SIGN: =
self-cleavage kobs at 2500 uM GlcN6P / s⁻¹: 0.000476

MUTATION_LABEL: A15U C16A C71U
SIGN: =
self-cleavage kobs at 2500 uM GlcN6P / s⁻¹: 0.000598

MUTATION_LABEL: U55G G66A
SIGN: =
self-cleavage kobs at 2500 uM GlcN6P / s⁻¹: 0.00661

MUTATION_LABEL: U31C U65C
SIGN: =
self-cleavage kobs at 2500 uM GlcN6P / s⁻¹: 4.75e-05

MUTATION_LABEL: A42G U49C
SIGN: <
self-cleavage kobs at 2500 uM GlcN6P / s⁻¹: 1e-05

MUTATION_LABEL: A6U A15G C16U
SIGN: =
self-cleavage kobs at 2500 uM GlcN6P / s⁻¹: 5.09e-05

MUTATION_LABEL: A33U A39C G62C
SIGN: <
self-cleavage kobs at 2500 uM GlcN6P / s⁻¹: 1e-05

MUTATION_LABEL: U65G
SIGN: =
self-cleavage kobs at 2500 uM GlcN6P / s⁻¹: 0.00237

MUTATION_LABEL: C11A A15G
SIGN: =
self-cleavage kobs at 2500 uM GlcN6P / s⁻¹: 0.000149

MUTATION_LABEL: A6C C10A C34G C50U U56A
SIGN: <
self-cleavage kobs at 2500 uM GlcN6P / s⁻¹: 1e-05

MUTATION_LABEL: G7U C61G C67A
SIGN: =
self-cleavage kobs at 2500 uM GlcN6P / s⁻¹: 0.00214

MUTATION_LABEL: U31A G37A
SIGN: =
self-cleavage kobs at 2500 uM GlcN6P / s⁻¹: 0.000309

MUTATION_LABEL: G7C A64G
SIGN: <
self-cleavage kobs at 2500 uM GlcN6P / s⁻¹: 1e-05

MUTATION_LABEL: A53C C70A
SIGN: =
self-cleavage kobs at 2500 uM GlcN6P / s⁻¹: 6.85e-05

MUTATION_LABEL: A12G G51C
SIGN: <
self-cleavage kobs at 2500 uM GlcN6P / s⁻¹: 1e-05

MUTATION_LABEL: A14C A52G U57G
SIGN: =
self-cleavage kobs at 2500 uM GlcN6P / s⁻¹: 8.49e-05

MUTATION_LABEL: U31G A42G
SIGN: =
self-cleavage kobs at 2500 uM GlcN6P / s⁻¹: 0.00724

MUTATION_LABEL: C34U U47G G51U
SIGN: <
self-cleavage kobs at 2500 uM GlcN6P / s⁻¹: 1e-05

MUTATION_LABEL: U46C C68U
SIGN: =
self-cleavage kobs at 2500 uM GlcN6P / s⁻¹: 0.000933

MUTATION_LABEL: G9A A12C G59C
SIGN: <
self-cleavage kobs at 2500 uM GlcN6P / s⁻¹: 1e-05

MUTATION_LABEL: A12U G29A U31C
SIGN: =
self-cleavage kobs at 2500 uM GlcN6P / s⁻¹: 0.00041

MUTATION_LABEL: G41U A64G
SIGN: =
self-cleavage kobs at 2500 uM GlcN6P / s⁻¹: 0.000414

MUTATION_LABEL: G29C C71G
SIGN: =
self-cleavage kobs at 2500 uM GlcN6P / s⁻¹: 8.9e-05

MUTATION_LABEL: A39C
SIGN: =
self-cleavage kobs at 2500 uM GlcN6P / s⁻¹: 0.00591

MUTATION_LABEL: G43C A53C U56C
SIGN: <
self-cleavage kobs at 2500 uM GlcN6P / s⁻¹: 1e-05

MUTATION_LABEL: A12G U54C U65G
SIGN: =
self-cleavage kobs at 2500 uM GlcN6P / s⁻¹: 3.01e-05

MUTATION_LABEL: A36U C58G C70U
SIGN: =
self-cleavage kobs at 2500 uM GlcN6P / s⁻¹: 6.88e-05

MUTATION_LABEL: A39C A64G
SIGN: =
self-cleavage kobs at 2500 uM GlcN6P / s⁻¹: 0.00323

MUTATION_LABEL: G40U G41C C70A
SIGN: =
self-cleavage kobs at 2500 uM GlcN6P / s⁻¹: 0.000546

MUTATION_LABEL: C8G C61G
SIGN: <
self-cleavage kobs at 2500 uM GlcN6P / s⁻¹: 1e-05
